- testSystem: delF508-CFTR (Homo sapiens, UniProt P13569, DEL508-508)
- Construct: expressed in transfected cells
- Sequence (P13569 with tags, fused parts or gaps DEL508-508): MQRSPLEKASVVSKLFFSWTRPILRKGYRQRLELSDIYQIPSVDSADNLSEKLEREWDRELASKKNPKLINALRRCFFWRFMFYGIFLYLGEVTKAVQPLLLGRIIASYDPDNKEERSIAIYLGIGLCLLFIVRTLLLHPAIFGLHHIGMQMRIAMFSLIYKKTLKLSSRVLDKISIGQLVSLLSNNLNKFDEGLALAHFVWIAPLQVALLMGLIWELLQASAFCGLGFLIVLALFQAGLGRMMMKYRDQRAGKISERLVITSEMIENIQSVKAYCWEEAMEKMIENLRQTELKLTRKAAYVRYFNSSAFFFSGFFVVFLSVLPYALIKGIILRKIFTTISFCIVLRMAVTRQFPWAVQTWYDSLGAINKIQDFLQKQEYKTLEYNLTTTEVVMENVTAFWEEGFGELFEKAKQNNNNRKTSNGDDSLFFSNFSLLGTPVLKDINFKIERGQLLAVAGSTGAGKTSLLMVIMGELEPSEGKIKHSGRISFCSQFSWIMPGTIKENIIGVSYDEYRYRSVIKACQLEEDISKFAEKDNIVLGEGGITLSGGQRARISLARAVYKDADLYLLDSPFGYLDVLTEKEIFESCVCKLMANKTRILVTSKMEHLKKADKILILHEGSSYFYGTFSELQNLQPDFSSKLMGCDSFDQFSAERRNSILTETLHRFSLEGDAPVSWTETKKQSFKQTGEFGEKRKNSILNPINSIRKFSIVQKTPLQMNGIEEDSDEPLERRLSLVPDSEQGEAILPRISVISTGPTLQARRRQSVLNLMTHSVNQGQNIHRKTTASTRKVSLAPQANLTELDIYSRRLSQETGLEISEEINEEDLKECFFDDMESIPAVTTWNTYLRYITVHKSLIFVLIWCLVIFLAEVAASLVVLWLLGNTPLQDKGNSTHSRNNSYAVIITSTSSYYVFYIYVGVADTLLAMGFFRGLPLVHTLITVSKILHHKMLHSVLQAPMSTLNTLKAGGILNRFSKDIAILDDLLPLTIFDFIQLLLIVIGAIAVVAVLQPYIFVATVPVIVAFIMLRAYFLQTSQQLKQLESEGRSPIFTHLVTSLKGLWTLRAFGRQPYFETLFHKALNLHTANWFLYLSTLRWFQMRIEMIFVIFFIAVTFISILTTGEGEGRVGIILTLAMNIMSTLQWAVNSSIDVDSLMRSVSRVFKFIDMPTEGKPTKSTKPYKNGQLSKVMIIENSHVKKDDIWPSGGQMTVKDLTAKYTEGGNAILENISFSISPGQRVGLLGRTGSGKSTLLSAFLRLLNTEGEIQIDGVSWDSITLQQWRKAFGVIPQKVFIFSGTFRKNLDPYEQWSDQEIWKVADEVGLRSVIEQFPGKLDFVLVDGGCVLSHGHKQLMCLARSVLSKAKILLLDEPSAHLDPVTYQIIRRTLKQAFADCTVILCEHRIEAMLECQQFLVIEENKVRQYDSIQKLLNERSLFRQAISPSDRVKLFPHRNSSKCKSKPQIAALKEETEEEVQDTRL
- test: Measurement of delF508-CFTR-HRP surface expression in CFBE41o- cells
- Format: cell-based
- conditionInfo: HRP-tagged delF508-CFTR surface expression, CFBE41o- cells, 24 h with compound, 10-point curve, highest concentration 10 μM
Reported EC50 values for a set of compounds

[
  {
    "compound": "O=C(O)CCCN1CCCCOc2ccc(F)cc2-c2nc(ccc2C(F)(F)F)NS(=O)(=O)c2cccc1n2",
    "EC50": "1800 nM"
  },
  {
    "compound": "O=C(O)CCCN1CCCCCCCCc2ccccc2-c2nc(ccc2C(F)(F)F)NS(=O)(=O)c2cccc1n2",
    "EC50": "291 nM"
  },
  {
    "compound": "O=S1(=O)Nc2ccc(C(F)(F)F)c(n2)-c2ccccc2CCCCCN(CCO)c2cccc1n2",
    "EC50": "391 nM"
  },
  {
    "compound": "O=C(O)CCCN1CCCCc2ccccc2-c2nc(ccc2Cl)NS(=O)(=O)c2cccc1n2",
    "EC50": "2760 nM"
  },
  {
    "compound": "O=S1(=O)Nc2ccc(Cl)c(n2)-c2cccnc2OCCCCCNc2cccc1n2",
    "EC50": "1260 nM"
  },
  {
    "compound": "O=C(O)CCN1CCCCOc2ccc(F)cc2-c2nc(ccc2C(F)(F)F)NS(=O)(=O)c2cccc1n2",
    "EC50": "2330 nM"
  },
  {
    "compound": "O=S1(=O)Nc2ccc(C(F)(F)F)c(n2)-c2ccccc2CCCCCCN(CCCCCO)c2cccc1n2",
    "EC50": "236 nM"
  },
  {
    "compound": "O=S1(=O)Nc2ccc(C(F)(F)F)c(n2)-c2ccccc2CCCCNCCNc2cccc1n2",
    "EC50": "3900 nM"
  },
  {
    "compound": "O=C(O)CCN1CCCCCCCc2ccccc2-c2nc(ccc2C(F)(F)F)NS(=O)(=O)c2cccc1n2",
    "EC50": "403 nM"
  },
  {
    "compound": "O=S1(=O)Nc2ccc(C(F)(F)F)c(n2)-c2ccccc2CCCCCN(CCN2CCOCC2)c2cccc1n2",
    "EC50": "393 nM"
  },
  {
    "compound": "O=S1(=O)Nc2ccc(C(F)(F)F)c(n2)-c2cccnc2NCCCCCCNc2cccc1n2",
    "EC50": "977 nM"
  },
  {
    "compound": "O=S1(=O)Nc2ccc(C(F)(F)F)c(n2)-c2ccccc2CCCCCCCN(CCCCCO)c2cccc1n2",
    "EC50": "187 nM"
  },
  {
    "compound": "O=C1C2CCCCC2C(=O)N1CCCN1CCCCCc2ccccc2-c2nc(ccc2C(F)(F)F)NS(=O)(=O)c2cccc1n2 (stereo not drawn)",
    "EC50": "608 nM"
  },
  {
    "compound": "O=C(O)CCCCN1CCCCCc2ccccc2-c2nc(ccc2C(F)(F)F)NS(=O)(=O)c2cccc1n2",
    "EC50": "492 nM"
  },
  {
    "compound": "O=C(O)CCN1CCCCCCc2ccccc2-c2nc(ccc2C(F)(F)F)NS(=O)(=O)c2cccc1n2",
    "EC50": "1040 nM"
  },
  {
    "compound": "O=S1(=O)Nc2ccc(Cl)c(n2)-c2ccccc2CCCCCOc2cccc1n2",
    "EC50": "2150 nM"
  },
  {
    "compound": "O=S1(=O)Nc2ccc(C(F)(F)F)c(n2)-c2ccccc2OCCCCNc2cccc1n2",
    "EC50": "978 nM"
  },
  {
    "compound": "O=S1(=O)Nc2ccc(C(F)(F)F)c(n2)-c2cc(F)ccc2OCCCCN(CCCO)c2cccc1n2",
    "EC50": "603 nM"
  },
  {
    "compound": "O=S1(=O)Nc2ccc(C(F)(F)F)c(n2)-c2ccccc2OCCCCN(CCO)c2cccc1n2",
    "EC50": "606 nM"
  },
  {
    "compound": "NCCN1CCCCc2ccccc2-c2nc(ccc2C(F)(F)F)NS(=O)(=O)c2cccc1n2",
    "EC50": "2440 nM"
  },
  {
    "compound": "O=C(O)COCCN1CCCCCc2ccccc2-c2nc(ccc2C(F)(F)F)NS(=O)(=O)c2cccc1n2",
    "EC50": "1990 nM"
  }
]
